# studyTarget: T1, Aβ1-28 (human)
# T1 construct: Bought peptide (Bachem); also called Aß1-28 monomer; A131-28
# T1 sequence (peptide, as listed by the source): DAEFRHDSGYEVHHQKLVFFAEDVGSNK
# procedureSummary: SPR (Biacore T200); antibody captured by anti-human Fc, Aβ1-28 as analyte; global 1:1 fit; apparent KD
pKd: −log10 of the molar value.
Reported values of pKd for individual entries

- binder: "h2831 (antibody, V domains shown, Humanized IgG mAb; also called PB-0575) VH: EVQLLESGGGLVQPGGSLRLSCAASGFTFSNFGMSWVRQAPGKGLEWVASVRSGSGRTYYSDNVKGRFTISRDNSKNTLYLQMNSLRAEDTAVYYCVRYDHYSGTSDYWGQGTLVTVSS VL: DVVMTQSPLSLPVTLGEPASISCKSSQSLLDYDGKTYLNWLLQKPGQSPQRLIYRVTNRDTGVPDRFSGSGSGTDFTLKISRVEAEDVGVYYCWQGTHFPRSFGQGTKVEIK"
  pKd: 8.16
- binder: "h2931 (antibody, V domains shown, also called PB-0576) VH: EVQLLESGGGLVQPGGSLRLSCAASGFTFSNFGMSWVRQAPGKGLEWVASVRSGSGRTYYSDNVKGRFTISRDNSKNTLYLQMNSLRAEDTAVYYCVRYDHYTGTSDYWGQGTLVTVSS VL: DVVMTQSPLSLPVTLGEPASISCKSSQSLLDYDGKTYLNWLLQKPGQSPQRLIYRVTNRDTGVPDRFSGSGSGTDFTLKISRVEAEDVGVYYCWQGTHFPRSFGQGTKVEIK"
  pKd: 8.36
- binder: "h2726 (antibody, V domains shown, Humanized IgG mAb; Only the variable domains are tied to the construct; also called PB-0573) VH: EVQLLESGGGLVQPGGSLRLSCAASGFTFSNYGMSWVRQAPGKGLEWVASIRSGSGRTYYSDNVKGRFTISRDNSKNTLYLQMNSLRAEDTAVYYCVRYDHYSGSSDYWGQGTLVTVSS VL: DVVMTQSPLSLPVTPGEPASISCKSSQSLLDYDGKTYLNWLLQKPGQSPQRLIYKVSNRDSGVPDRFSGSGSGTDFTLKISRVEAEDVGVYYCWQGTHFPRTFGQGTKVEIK"
  pKd: 8.22
- binder: "h2731 (antibody, V domains shown, Humanized IgG mAb; Only the variable domains are tied to the construct) VH: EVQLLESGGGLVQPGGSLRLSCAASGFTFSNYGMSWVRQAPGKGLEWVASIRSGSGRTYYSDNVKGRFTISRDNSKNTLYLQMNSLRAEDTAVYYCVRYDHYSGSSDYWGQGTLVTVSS VL: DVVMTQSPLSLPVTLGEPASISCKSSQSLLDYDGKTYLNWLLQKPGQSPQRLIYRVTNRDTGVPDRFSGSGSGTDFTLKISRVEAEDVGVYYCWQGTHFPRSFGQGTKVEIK"
  pKd: 8.30
